Measured values drawn from patent US20240317847A1 for this set.

- study.system: T1, murine IL-11 (mouse, UniProt P47873 22-199)
- T1 construct: bought from Invigate; also called mIL-11; mIL11
- T1 sequence: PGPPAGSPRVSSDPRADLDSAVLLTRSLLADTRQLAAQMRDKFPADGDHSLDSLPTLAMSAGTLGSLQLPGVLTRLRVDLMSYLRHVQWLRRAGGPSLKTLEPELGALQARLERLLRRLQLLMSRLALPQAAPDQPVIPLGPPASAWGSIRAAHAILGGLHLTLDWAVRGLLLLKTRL
- test.method.notes: SPR, antibody captured, IL-11 as analyte
In this section, each of the binders is paired with its reported Kd.

| binder | Kd, nM |
| --- | --- |
| TPP-19868 (antibody, V domains shown) VH: EVQLLESGGGLVQPGGSLRLSCAASGFTFSSYGMHWVRQAPGKGLEWVSVISYDGSYTYYADSVKGRFTISRDNSKNTLYLQMNSLRAEDTAVYYCAAGVPDYWGQGTLVTVSS VL: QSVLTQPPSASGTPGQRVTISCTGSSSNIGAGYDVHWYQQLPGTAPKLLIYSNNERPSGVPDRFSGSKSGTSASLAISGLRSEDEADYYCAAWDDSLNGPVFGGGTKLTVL | 0.72 |
| TPP-19866 (antibody, V domains shown) VH: EVQLLESGGGLVQPGGSLRLSCAASGFTFSSYGMHWVRQAPGKGLEWVSVISYDGGYKYYADSVKGRFTISRDNSKNTLYLQMNSLRAEDTAVYYCAAGVPDYWGQGTLVTVSS VL: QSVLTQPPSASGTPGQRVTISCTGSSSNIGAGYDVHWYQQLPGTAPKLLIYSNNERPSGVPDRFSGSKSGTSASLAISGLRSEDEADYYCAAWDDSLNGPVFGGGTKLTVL | 1.4 |
| TPP-19862 (antibody, V domains shown) VH: EVQLLESGGGLVQPGGSLRLSCAASGFTFSSYGMSWVRQAPGKGLEWVSVISYDGSYKYYADSVKGRFTISRDNSKNTLYLQMNSLRAEDTAVYYCAAGVPDYWGQGTLVTVSS VL: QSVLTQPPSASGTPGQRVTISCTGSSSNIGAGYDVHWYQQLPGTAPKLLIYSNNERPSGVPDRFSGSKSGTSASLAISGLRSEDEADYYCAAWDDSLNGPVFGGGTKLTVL | 4.7 |
| TPP-19873 (antibody, V domains shown) VH: EVQLLESGGGLVQPGGSLRLSCAASGFTFSSYGMHWVRQAPGKGLEWVSVISYDGSNKYYADSVKGRFTISRDNSKNTLYLQMNSLRAEDTAVYYCAAGVPDYWGQGTLVTVSS VL: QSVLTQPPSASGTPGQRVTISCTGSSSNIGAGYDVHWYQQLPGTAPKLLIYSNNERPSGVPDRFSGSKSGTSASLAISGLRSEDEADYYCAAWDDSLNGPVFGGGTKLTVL | 4 |
| TPP-19867 (antibody, V domains shown) VH: EVQLLESGGGLVQPGGSLRLSCAASGFTFSSYGMHWVRQAPGKGLEWVSVISYDGSSKYYADSVKGRFTISRDNSKNTLYLQMNSLRAEDTAVYYCAAGVPDYWGQGTLVTVSS VL: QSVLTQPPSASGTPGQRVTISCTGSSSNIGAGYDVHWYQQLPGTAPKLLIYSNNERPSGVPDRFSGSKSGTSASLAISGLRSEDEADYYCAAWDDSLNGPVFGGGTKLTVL | 3.4 |
| TPP-19863 (antibody, V domains shown) VH: EVQLLESGGGLVQPGGSLRLSCAASGFTFSSYGMHWVRQAPGKGLEWVSAISYDGSYKYYADSVKGRFTISRDNSKNTLYLQMNSLRAEDTAVYYCAAGVPDYWGQGTLVTVSS VL: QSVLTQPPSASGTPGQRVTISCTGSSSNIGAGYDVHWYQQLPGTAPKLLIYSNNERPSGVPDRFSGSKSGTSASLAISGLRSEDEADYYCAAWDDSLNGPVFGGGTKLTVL | 0.64 |
| TPP-19865 (antibody, V domains shown) VH: EVQLLESGGGLVQPGGSLRLSCAASGFTFSSYGMHWVRQAPGKGLEWVSVISYSGSYKYYADSVKGRFTISRDNSKNTLYLQMNSLRAEDTAVYYCAAGVPDYWGQGTLVTVSS VL: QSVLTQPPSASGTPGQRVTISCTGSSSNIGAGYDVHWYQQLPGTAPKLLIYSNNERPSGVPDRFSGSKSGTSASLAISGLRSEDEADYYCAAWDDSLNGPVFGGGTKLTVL | 3.6 |
| TPP-19861 (antibody, V domains shown) VH: EVQLLESGGGLVQPGGSLRLSCAASGFTFSSYAMHWVRQAPGKGLEWVSVISYDGSYKYYADSVKGRFTISRDNSKNTLYLQMNSLRAEDTAVYYCAAGVPDYWGQGTLVTVSS VL: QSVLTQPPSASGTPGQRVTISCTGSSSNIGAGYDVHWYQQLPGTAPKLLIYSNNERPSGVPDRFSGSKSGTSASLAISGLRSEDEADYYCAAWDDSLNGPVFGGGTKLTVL | 28 |
